Target system: PDE4B (human recombinant) (Homo sapiens)
Construct: made in house
Sequence (Q07343 1-564 isoform Q07343-2): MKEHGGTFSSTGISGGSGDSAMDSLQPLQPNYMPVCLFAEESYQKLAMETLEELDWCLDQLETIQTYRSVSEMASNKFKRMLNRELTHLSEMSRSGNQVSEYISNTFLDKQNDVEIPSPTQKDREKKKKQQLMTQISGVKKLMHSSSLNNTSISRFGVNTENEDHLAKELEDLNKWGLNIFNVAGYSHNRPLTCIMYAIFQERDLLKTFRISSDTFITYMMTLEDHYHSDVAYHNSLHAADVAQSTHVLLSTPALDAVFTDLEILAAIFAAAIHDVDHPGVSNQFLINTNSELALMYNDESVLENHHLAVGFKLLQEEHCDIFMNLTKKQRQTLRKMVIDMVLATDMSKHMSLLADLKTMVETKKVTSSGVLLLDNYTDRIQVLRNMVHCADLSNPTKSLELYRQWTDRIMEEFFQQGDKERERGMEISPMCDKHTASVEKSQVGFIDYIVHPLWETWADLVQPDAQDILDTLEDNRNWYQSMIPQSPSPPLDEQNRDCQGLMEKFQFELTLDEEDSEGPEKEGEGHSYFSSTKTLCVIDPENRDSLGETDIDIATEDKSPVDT
Run description: Inhibition of PDE4B activity: SPA and/or Fluorescence Polarisation (FP) assay
Format: biochemical
Cond: one reading (n=1) or average of 2 or more readings, read-out: PDE4B pIC50 (±about 0.5) (converted)
Experimental endpoint: IC50

Below, each entry is followed by its recorded IC50 result.
[[record]]
compound = "CCn1ncc2c(NC3CCOCC3)c(CNC(=O)c3cnc(C)cn3)c(C)nc21"
experimental_endpoint = "IC50"
result = "0.126 to 1 nM"

[[record]]
compound = "CCc1nc2c(cnn2CC)c(NC2CCOCC2)c1CNC(=O)c1cc(S(=O)(=O)NC2CCC2)ccc1OC"
experimental_endpoint = "IC50"
result = "0.01 to 0.1 nM"

[[record]]
compound = "CCc1nc2c(cnn2CC)c(NC2CCOCC2)c1CNC(=O)c1ccc(N2CCCC2=O)cc1"
experimental_endpoint = "IC50"
result = "0.01 to 0.1 nM"

[[record]]
compound = "CCc1nc2c(cnn2CC)c(NC2CCOCC2)c1CNC(=O)c1ccc(C2CCCC2)cc1"
experimental_endpoint = "IC50"
result = "0.01 to 0.1 nM"

[[record]]
compound = "CCc1nc2c(cnn2CC)c(NC2CCN(C(N)=O)CC2)c1CNC(=O)c1ccco1"
experimental_endpoint = "IC50"
result = "0.01 to 0.1 nM"

[[record]]
compound = "CCc1nc2c(cnn2CC)c(NC2CCOCC2)c1CNC(=O)c1ccnnc1"
experimental_endpoint = "IC50"
result = "0.126 to 1 nM"

[[record]]
compound = "CCc1nc2c(cnn2CC)c(NC2CCOCC2)c1CNC(=O)c1ccc(-n2cccc2)nc1"
experimental_endpoint = "IC50"
result = "0.01 to 0.1 nM"

[[record]]
compound = "CCc1nc2c(cnn2CC)c(NC2CCOCC2)c1CNC(=O)c1ccc(NC(C)=O)cc1"
experimental_endpoint = "IC50"
result = "0.01 to 0.1 nM"


# context switch: different compound, same IC50
Fill in: IC50 of CCc1nc2c(cnn2CC)c(NC2CCOCC2)c1CNC(=O)c1cc(C(=O)N(C)c2ccccc2)ccc1OC is ___
0.01 to 0.1 nM
